Values were extracted from patent US20230406837A1.

Recorded Pin1 labeling by intact protein MS for the following compounds
- MEASURED_ON: Pin1 (Homo sapiens, UniProt Q13526)
- EXPERIMENT_DESCRIPTION: In-vitro Pin1 covalent labeling by intact protein LC/MS
- Format: binding
- Set-up: The catalytic domain of Pin1 (2 μM) in 20 mM Tris, 75 mM NaCl, pH 7.5 was incubated with 2 μM Sulfamate; made in house
- ASSAY_CONDITIONS: 2 μM compound, 2 μM Pin1, pH 7.5, 1 h, 25° C.
- Sequence (Q13526 52-163 limits assumed): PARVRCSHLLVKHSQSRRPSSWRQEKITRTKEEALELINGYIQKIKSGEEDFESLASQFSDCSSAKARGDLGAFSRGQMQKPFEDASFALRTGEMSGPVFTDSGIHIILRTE
RESULT_TYPE: Pin1 labeling by intact protein MS (%)

INSERT INTO assay_data (compound, result_type, comparative_sign, recorded_number) VALUES
  ('O=C(COS(=O)(=O)Nc1ccccc1)N(CC1CCCCC1)C1CCS(=O)(=O)C1 (centres unmarked)', 'Pin1 labeling by intact protein MS', '>', 95),
  ('CC(C)(C)CN(C(=O)COS(=O)(=O)NCc1ccccc1)C1CCS(=O)(=O)C1 (centres unmarked)', 'Pin1 labeling by intact protein MS', '=', 56),
  ('CC(C)(C)CN(C(=O)CCl)C1CCS(=O)(=O)C1 (centres unmarked) [Sulfopin, reference compound]', 'Pin1 labeling by intact protein MS', '=', 59),
  ('CNS(=O)(=O)OCC(=O)N(CC(C)(C)C)C1CCS(=O)(=O)C1 (centres unmarked)', 'Pin1 labeling by intact protein MS', '=', 16),
  ('CC(C)(C)CN(C(=O)COS(C)(=O)=O)C1CCS(=O)(=O)C1 (centres unmarked)', 'Pin1 labeling by intact protein MS', '=', 18);

----------
- MEASURED_ON: UniProt Q13526
- EXPERIMENT_DESCRIPTION: Kinetics of Pin1 binding (KI and Kinact) by LC-MS
- Sequence (Q13526 whole entry): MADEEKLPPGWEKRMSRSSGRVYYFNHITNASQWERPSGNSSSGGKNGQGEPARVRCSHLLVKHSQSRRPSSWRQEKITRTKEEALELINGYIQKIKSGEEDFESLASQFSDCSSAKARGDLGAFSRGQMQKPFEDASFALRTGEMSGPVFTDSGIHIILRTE
- Parameters: made in house
- ASSAY_CONDITIONS: Pin1 0.5 μM, 100 mM Tris buffer pH 7.4, 14° C.; read-out: K1 value (KI)
# Lookup of reported Ki keyed by entry
RESULT_TYPE: Ki (µM)

INSERT INTO results (compound, result_type, recorded_number) VALUES
  ('CC(C)(C)CN(C(=O)CCl)C1CCS(=O)(=O)C1 (centres unmarked) [Sulfopin, reference compound]', 'Ki', 217),
  ('CC(C)(C)CN(C(=O)COS(=O)(=O)Nc1ccccc1)C1CCS(=O)(=O)C1 (centres unmarked) [Compound 4d]', 'Ki', 43.6);
